target: Metabotropic glutamate receptor 8 (Rattus norvegicus) (UniProt P70579); experiment: mGluR8 Gi/Go-coupled signaling modulation – cell-based, rat, thallium flux, HTS, primary screen (AID 488969); conditions: HEK293 rat mGluR8, GIRK (G protein-gated inwardly rectifying potassium channel) thallium flux, FluoZin2; at 10 µM; stronger effect = higher value; submaximal glutamate (EC20) added with thallium
Sequence (P70579 whole entry, looked up): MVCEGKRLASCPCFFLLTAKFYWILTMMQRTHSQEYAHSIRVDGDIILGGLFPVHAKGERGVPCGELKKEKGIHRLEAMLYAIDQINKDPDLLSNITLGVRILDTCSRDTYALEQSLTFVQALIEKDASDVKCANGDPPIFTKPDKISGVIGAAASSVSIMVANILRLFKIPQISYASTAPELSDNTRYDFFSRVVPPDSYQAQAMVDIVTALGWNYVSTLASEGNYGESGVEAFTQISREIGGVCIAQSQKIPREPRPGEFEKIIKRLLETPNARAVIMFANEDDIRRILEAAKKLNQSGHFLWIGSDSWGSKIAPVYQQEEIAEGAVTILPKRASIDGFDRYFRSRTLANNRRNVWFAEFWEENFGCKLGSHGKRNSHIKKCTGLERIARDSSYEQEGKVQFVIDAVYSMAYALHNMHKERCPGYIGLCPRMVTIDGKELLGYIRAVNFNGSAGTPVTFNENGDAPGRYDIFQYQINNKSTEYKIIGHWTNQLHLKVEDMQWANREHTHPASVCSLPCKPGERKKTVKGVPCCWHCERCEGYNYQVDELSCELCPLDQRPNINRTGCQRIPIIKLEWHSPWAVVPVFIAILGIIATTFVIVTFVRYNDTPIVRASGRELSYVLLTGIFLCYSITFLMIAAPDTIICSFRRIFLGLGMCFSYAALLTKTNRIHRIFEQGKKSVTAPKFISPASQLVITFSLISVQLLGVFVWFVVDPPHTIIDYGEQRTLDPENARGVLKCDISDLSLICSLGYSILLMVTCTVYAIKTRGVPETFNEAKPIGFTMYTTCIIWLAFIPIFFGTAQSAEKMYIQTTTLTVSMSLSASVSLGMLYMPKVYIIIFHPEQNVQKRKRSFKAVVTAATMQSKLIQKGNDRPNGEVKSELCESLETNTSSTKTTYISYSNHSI
The full ranking holds about 110,000 compounds; the median of “z-score” is about -0.1, and the highest 2% start at about 2. The full list was thinned out, with the highest values kept by preference.
# binarize z-score: threshold 0.1 inclusive, high side rule met, low side rule not met

1) Cc1ccc(OC(=O)CCc2c(C)nc3ncnn3c2C)cc1    rule not met
2) CCOC(=O)c1c(-c2ccccc2)csc1NC(=O)C1CCCO1 (stereo unspecified)    rule not met
3) Cc1ccc(/C=N/n2nnnc2N)cc1[N+](=O)[O-]    rule met
4) CCOC(=O)c1c(-c2ccccc2)csc1NC(=S)N(CC)CC    rule met
5) Cc1cccc(Nc2nnc(SCC3CCCCO3)s2)c1C (stereo unspecified)    rule not met
6) CCn1c(=NC(=O)c2ccc(N3C(=O)CCC3=O)cc2)sc2c(OC)ccc(OC)c21    rule not met
7) CCOC(=O)c1c(-c2ccc(C)cc2)csc1NC(=S)NC(=O)c1ccccc1    rule met
8) CCOC(=O)c1c(-c2ccccc2)csc1NC(=S)NC    rule met
9) Cc1cc(C)n(S(=O)(=O)c2ccc(C(C)(C)C)cc2)n1    rule not met
10) CCOC(=O)c1cnc2c(Cl)cccc2c1NCCN(C)C    rule met
11) COc1ccc(OC)c(NC(=O)CSc2nc3c(c(=O)n(C)c(=O)n3C)n2C)c1    rule not met
